Kindly supply the reported Relative to UNC0638 Average values for the records listed here.
- assay.target: T1, G9a and GLP (Homo sapiens, UniProt Q96KQ7+Q9H9B1)
- T1 sequence (Q96KQ7 2-1210 limits assumed): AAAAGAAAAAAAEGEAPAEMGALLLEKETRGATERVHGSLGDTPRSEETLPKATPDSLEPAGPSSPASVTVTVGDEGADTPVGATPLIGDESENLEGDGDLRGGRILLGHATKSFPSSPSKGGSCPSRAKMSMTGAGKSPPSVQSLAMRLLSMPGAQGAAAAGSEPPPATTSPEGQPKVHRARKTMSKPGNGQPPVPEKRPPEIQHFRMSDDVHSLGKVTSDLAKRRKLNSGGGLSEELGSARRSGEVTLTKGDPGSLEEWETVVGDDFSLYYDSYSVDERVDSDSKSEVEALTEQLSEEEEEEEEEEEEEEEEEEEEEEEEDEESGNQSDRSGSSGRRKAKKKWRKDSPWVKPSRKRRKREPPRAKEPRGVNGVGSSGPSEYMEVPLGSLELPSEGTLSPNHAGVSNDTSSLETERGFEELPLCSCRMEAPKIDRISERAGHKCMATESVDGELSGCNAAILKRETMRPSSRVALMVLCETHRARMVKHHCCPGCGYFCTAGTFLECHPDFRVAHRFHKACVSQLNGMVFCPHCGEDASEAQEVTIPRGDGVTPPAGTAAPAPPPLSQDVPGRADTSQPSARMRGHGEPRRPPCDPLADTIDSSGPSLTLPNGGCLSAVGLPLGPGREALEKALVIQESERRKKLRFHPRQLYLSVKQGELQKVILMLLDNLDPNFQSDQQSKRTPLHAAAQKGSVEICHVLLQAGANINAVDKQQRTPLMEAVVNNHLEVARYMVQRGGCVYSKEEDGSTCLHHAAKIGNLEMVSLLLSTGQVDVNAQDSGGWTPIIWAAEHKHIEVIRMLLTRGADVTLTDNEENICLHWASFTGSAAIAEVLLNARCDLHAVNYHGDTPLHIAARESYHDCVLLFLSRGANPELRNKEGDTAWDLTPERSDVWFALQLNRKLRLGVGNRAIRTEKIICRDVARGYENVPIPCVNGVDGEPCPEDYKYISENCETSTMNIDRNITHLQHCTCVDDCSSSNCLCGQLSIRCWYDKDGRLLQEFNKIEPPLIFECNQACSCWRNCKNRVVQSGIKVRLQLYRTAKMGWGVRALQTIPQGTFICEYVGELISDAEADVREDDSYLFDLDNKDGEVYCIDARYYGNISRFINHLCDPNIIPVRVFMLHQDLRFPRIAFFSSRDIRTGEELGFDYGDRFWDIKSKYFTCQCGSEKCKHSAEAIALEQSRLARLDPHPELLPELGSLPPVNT
- T1 sequence (Q9H9B1 2-1298 limits assumed): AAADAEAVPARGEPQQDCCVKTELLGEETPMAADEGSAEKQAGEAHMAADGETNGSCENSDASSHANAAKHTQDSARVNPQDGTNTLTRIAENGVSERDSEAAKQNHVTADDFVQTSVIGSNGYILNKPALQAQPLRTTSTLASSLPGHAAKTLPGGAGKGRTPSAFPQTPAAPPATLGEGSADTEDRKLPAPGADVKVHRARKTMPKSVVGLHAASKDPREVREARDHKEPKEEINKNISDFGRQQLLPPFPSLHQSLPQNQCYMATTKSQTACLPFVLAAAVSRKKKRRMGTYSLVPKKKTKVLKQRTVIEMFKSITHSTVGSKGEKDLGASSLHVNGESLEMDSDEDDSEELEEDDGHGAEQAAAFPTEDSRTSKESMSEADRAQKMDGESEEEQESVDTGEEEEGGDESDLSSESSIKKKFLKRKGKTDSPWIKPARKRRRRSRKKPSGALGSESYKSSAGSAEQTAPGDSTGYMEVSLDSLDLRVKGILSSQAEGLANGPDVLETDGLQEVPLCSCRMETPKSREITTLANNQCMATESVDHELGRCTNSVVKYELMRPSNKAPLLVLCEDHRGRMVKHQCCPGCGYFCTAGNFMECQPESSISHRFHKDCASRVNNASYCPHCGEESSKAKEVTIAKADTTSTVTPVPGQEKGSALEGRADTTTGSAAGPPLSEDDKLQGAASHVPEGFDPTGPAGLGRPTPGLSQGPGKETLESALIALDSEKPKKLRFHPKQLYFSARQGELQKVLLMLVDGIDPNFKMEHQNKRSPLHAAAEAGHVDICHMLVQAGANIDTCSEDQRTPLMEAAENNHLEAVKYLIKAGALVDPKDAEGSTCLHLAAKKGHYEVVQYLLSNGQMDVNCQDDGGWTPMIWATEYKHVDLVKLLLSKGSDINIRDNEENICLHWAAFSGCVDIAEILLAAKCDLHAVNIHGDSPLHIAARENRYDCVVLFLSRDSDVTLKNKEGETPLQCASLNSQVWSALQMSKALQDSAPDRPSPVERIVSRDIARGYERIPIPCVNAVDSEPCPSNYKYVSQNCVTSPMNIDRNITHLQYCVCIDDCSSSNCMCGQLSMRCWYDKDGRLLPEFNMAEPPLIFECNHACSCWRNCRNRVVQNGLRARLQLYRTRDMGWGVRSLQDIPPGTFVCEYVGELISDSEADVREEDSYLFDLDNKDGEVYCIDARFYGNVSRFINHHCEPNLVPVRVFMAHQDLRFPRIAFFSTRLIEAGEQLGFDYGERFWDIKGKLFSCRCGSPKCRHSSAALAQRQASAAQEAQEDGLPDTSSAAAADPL
- assay.explanation: Triple SILAC pull-down after UNC0638 treatment of 293T cells, DMSO/UNC0638 ratio of protein captured by 3×MBT;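 further: mass spectrometry (Q-Exactive) SILAC quantitation, DMSO/UNC0638 ratio computed after subtracting 3×MBTD355N mutant pull-down background, only proteins with at least twofold 3×MBT over mutant signal considered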
- Type: cell-based
- Design: endogenous in cells; host or cells: HEK 293T
- condition.details: average of UNC Light and UNC Heavy experiments
One number for each entry, in log base 2.

Some molecules with known Relative to UNC0638 Average results, for comparison:
EIF4E2 (protein, UniProt O60573 1-245, looked up) Eukaryotic translation …: MNNKFDALKDDDSGDHDQNEENSTQKDGEKEKTERDKNQSSSKRKAVVPGPAEHPLQYNYTFWYSRRTPGRPTSSQSYEQNIKQIGTFASVEQFWRFYSHMVRPGDLTGHSDFHLFKEGIKPMWEDDANKNGGKWIIRLRKGLASRCWENLILAMLGEQFMVGEEICGAVVSVRFQEDIISIWNKTASDQATTARIRDTLRRVLNLPPNTIMEYKTHTDSIKMPGRLGPQRLLFQNLWKPRLNVP: 0.15
SRP9 (protein, UniProt P49458 2-86, looked up) Signal recognition particle 9 …: PQYQTWEEFSRAAEKLYLADPMKARVVLKYRHSDGNLCVKVTDDLVCLVYKTDQAQDVKKIEKFHSQLMRLMVAKEARNVTMETE: 0.23
HNRNPA0 (protein, UniProt Q13151 1-305, looked up) Heterogeneous nuclear …: MENSQLCKLFIGGLNVQTSESGLRGHFEAFGTLTDCVVVVNPQTKRSRCFGFVTYSNVEEADAAMAASPHAVDGNTVELKRAVSREDSARPGAHAKVKKLFVGGLKGDVAEGDLIEHFSQFGTVEKAEIIADKQSGKKRGFGFVYFQNHDAADKAAVVKFHPIQGHRVEVKKAVPKEDIYSGGGGGGSRSSRGGRGGRGRGGGRDQNGLSKGGGGGYNSYGGYGGGGGGGYNAYGGGGGGSSYGGSDYGNGFGGFGSYSQHQSSYGPMKSGGGGGGGGSSWGGRSNSGPYRGGYGGGGGYGGSSF: 0.15
U2AF1 (protein, UniProt Q01081 2-240, looked up) Splicing factor U2AF 35 kDa …: AEYLASIFGTEKDKVNCSFYFKIGACRHGDRCSRLHNKPTFSQTIALLNIYRNPQNSSQSADGLRCAVSDVEMQEHYDEFFEEVFTEMEEKYGEVEEMNVCDNLGDHLVGNVYVKFRREEDAEKAVIDLNNRWFNGQPIHAELSPVTDFREACCRQYEMGECTRGGFCNFMHLKPISRELRRELYGRRRKKHRSRSRSRERRSRSRDRGRGGGGGGGGGGGGRERDRRRSRDRERSGRF: 0.14

Let us examine a further case.
Record PPP1CB (protein, UniProt P62140 2-327, looked up) Serine/threonine-protein …: ADGELNVDSLITRLLEVRGCRPGKIVQMTEAEVRGLCIKSREIFLSQPILLELEAPLKICGDIHGQYTDLLRLFEYGGFPPEANYLFLGDYVDRGKQSLETICLLLAYKIKYPENFFLLRGNHECASINRIYGFYDECKRRFNIKLWKTFTDCFNCLPIAAIVDEKIFCCHGGLSPDLQSMEQIRRIMRPTDVPDTGLLCDLLWSDPDKDVQGWGENDRGVSFTFGADVVSKFLNRHDLDLICRAHQVVEDGYEFFAKRQLVTLFSAPNYCGEFDNAGGMMSVDETLMCSFQILKPSEKKAKYQYGGLNSGRPVTPPRTANPPKKR , field Relative to UNC0638 Average: 0.23
